Where these numbers come from: BigSolDB 2.1

Details: in n-propanol, 327.15 K
value.kind: solubility (mole fraction)
A bare number is all that is needed in reply.

I'd like to know its solubility (mole fraction). The compound in question is "Cc1c(N)c(=O)n(-c2ccccc2)n1C"
0.46

* * *

Conditions: in water, 321.05 K
value.kind: solubility (mole fraction)

I'd like to know its solubility (mole fraction). The compound in question is "Cc1c(N)c(=O)n(-c2ccccc2)n1C"
0.27

* * *

Conditions: in methanol, 311.05 K
value.kind: solubility (mole fraction)
A bare number is all that is needed in reply.

I'd like to know its solubility (mole fraction). The compound in question is "Cc1c(N)c(=O)n(-c2ccccc2)n1C"
0.31

* * *

Details: in ethyl acetate, 303.15 K
value.kind: solubility (mole fraction)

I'd like to know its solubility (mole fraction). The compound in question is "Cc1c(N)c(=O)n(-c2ccccc2)n1C"
0.09

* * *

Conditions: in ethanol, 315.15 K
value.kind: solubility (mole fraction)
A bare number is all that is needed in reply.

I'd like to know its solubility (mole fraction). The compound in question is "Cc1c(N)c(=O)n(-c2ccccc2)n1C"
0.35

* * *

Details: in methanol, 338.35 K
value.kind: solubility (mole fraction)
A bare number is all that is needed in reply.

I'd like to know its solubility (mole fraction). The molecule in question is "Cc1c(N)c(=O)n(-c2ccccc2)n1C"
0.57

* * *

Conditions: in sec-butanol, 338.35 K
value.kind: solubility (mole fraction)

I'd like to know its solubility (mole fraction). The compound in question is "Cc1c(N)c(=O)n(-c2ccccc2)n1C"
0.41

* * *

Settings: in water, 327.15 K
value.kind: solubility (mole fraction)
A bare number is all that is needed in reply.

I'd like to know its solubility (mole fraction). The compound in question is "Cc1c(N)c(=O)n(-c2ccccc2)n1C"
0.33

* * *

Conditions: in ethyl acetate, 338.35 K
value.kind: solubility (mole fraction)
A bare number is all that is needed in reply.

I'd like to know its solubility (mole fraction). The compound in question is "Cc1c(N)c(=O)n(-c2ccccc2)n1C"
0.36

* * *

Conditions: in n-butanol, 338.35 K
value.kind: solubility (mole fraction)
A bare number is all that is needed in reply.

I'd like to know its solubility (mole fraction). The compound in question is "Cc1c(N)c(=O)n(-c2ccccc2)n1C"
0.46

* * *

Conditions: in methanol, 327.15 K
value.kind: solubility (mole fraction)
A bare number is all that is needed in reply.

I'd like to know its solubility (mole fraction). The compound in question is "Cc1c(N)c(=O)n(-c2ccccc2)n1C"
0.44

* * *

Details: in n-butanol, 303.15 K
value.kind: solubility (mole fraction)
A bare number is all that is needed in reply.

I'd like to know its solubility (mole fraction). The compound in question is "Cc1c(N)c(=O)n(-c2ccccc2)n1C"
0.17

* * *

Conditions: in isopropanol, 299.05 K
value.kind: solubility (mole fraction)
A bare number is all that is needed in reply.

I'd like to know its solubility (mole fraction). The compound in question is "Cc1c(N)c(=O)n(-c2ccccc2)n1C"
0.19

* * *

Conditions: in ethyl acetate, 307.25 K
value.kind: solubility (mole fraction)
A bare number is all that is needed in reply.

I'd like to know its solubility (mole fraction). The compound in question is "Cc1c(N)c(=O)n(-c2ccccc2)n1C"
0.11
